- Test system: panel of >300 diverse cancer cell lines
- TEST_NAME: Cancer cell line panel profiling, alamarBlue, 72 hours
- Assay type: cell-based, human
- PROTOCOL_CONDITIONS: read-out: IC50 values in 70% of cell lines, panel of >300 cancer cell lines
MEASUREMENT_NAME: IC50

Can you share its IC50? I mean this compound: CN(C)C/C=C/C(=O)Nc1ccc(C(=O)Nc2cccc(Nc3ncc(Cl)c(-c4c[nH]c5ccccc45)n3)c2)cc1 [Formula I-23]
< 200 nM

---

- Test system: panel of >300 diverse cancer cell lines
- TEST_NAME: Cancer cell line panel profiling, alamarBlue, 72 hours
- Type: cell-based, human
- PROTOCOL_CONDITIONS: read-out: IC50s in 94% (132/140) of leukemia cell lines
- Experimental: At indicated time points, cellular lysates were harvested at the indicated times points and immunoblotted for the indicated proteins. […] Anti-proliferative effects were determined using cell titer glo analysis. […] Anti-proliferative effects were determined using alamarBlue® analysis. […] Anti-proliferative effects were determined using cell titer glo analysis. […] Dose: i.v. 1 mg/kg and p.o. 10 mg/kg. Proliferation assays were conducted over a 48-72 hour time period (as noted). […]
pIC50: −log10 of the molar value.
MEASUREMENT_NAME: pIC50

Query: pIC50; subject: CN(C)C/C=C/C(=O)Nc1ccc(C(=O)Nc2cccc(Nc3ncc(Cl)c(-c4c[nH]c5ccccc45)n3)c2)cc1
> 6.70

---

# IC50 measurements, system: UniProt P50613
One number for each entry, in nM.

INSERT INTO results (molecule, reported_result) VALUES
  ('CN(C)C/C=C/C(=O)Nc1ccc(C(=O)Nc2cccc(Nc3ncc(Cl)c(-c4c(-c5ccccc5)nn5ccccc45)n3)c2)cc1 [Formula I-38]', 3010),
  ('CN(C)C/C=C/C(=O)Nc1ccc(C(=O)Nc2cccc(Nc3nc(-c4c[nH]c5ccccc45)c4ccccc4n3)c2)cc1 [Formula I-33]', 1420);

Now, please, on to the next molecule.
# IC50 lookup, item Cc1ccc(NC(=O)c2ccc(NC(=O)/C=C/CN(C)C)cc2)cc1Nc1ncc(Cl)c(-c2c[nH]c3ccccc23)n1 [Formula I-22]
32.6

---

- MEASURED_TARGET: CDK7 (Homo sapiens (Human), UniProt P50613)
- Sequence (P50613 whole entry, looked up): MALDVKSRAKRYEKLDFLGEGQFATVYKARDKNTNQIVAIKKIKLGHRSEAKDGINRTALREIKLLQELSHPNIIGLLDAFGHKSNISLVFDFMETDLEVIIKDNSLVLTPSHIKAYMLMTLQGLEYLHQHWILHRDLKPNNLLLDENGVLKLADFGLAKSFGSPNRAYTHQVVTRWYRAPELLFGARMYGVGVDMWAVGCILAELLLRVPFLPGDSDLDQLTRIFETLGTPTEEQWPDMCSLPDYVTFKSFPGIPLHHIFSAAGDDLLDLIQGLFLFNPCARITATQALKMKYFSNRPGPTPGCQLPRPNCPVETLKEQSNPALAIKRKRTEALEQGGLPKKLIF
- Sequence (P51946 whole entry partner, looked up): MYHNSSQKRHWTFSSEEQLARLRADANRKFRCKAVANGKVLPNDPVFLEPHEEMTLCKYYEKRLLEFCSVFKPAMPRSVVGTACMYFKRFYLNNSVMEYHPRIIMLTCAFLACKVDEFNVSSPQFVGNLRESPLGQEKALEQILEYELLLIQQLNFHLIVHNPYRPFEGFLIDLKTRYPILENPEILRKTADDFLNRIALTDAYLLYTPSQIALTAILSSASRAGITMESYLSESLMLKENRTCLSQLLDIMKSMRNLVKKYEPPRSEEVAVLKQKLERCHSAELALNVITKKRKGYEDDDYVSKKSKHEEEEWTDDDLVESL
- Sequence (P51948 whole entry partner, looked up): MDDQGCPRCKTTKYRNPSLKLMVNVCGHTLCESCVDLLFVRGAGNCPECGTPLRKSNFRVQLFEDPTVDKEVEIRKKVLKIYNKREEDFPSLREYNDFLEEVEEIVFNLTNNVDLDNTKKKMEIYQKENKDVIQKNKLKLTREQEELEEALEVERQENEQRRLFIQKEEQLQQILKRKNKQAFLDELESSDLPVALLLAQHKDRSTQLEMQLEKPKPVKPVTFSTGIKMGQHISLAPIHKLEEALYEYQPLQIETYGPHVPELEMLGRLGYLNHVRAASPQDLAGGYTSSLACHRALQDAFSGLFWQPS
So basically, if IC50 comes in under 90 nM it's t, and if it's 90 nM or more it's f.

Please review the entries below; each comes with its answer.
INSERT INTO results (record_smiles, measured_target, class_name) VALUES
  ('Cc1cnc(Nc2cccc(NC(=O)c3ccc(NC(=O)/C=C/CN(C)C)cc3)c2)nc1-c1c[nH]c2ccccc12', 'CDK7 (Homo sapiens (Human), UniProt P50613)', 't'),
  ('CN(C)C/C=C/C(=O)Nc1ccc(C(=O)Nc2cccc(Nc3ncc(C4CC4)c(-c4c[nH]c5ccccc45)n3)c2)cc1', 'CDK7 (Homo sapiens (Human), UniProt P50613)', 'f'),
  ('CN(C)C/C=C/C(=O)Nc1ccc(C(=O)Nc2cccc(Nc3nccc(-c4c[nH]c5ccccc45)n3)c2)cc1', 'CDK7 (Homo sapiens (Human), UniProt P50613)', 'f'),
  ('Cc1cccc2[nH]cc(-c3ccnc(Nc4cccc(NC(=O)c5ccc(NC(=O)/C=C/CN(C)C)cc5)c4)n3)c12', 'CDK7 (Homo sapiens (Human), UniProt P50613)', 'f');

Decide: IC50 of Cc1ccc(Nc2ncc(C)c(-c3c[nH]c4ccccc34)n2)cc1NC(=O)c1ccc(NC(=O)/C=C/CN(C)C)cc1 strictly below 90 nM?
t

Consider the molecule CN(C)C/C=C/C(=O)Nc1ccc(C(=O)Nc2cccc(Nc3ncc(C(F)(F)F)c(-c4c[nH]c5ccccc45)n3)c2)cc1 . Is its IC50 strictly less than 90 nM?
t
